# maps each entry to its Percent of Control Activity, MeP-dR
assay: E. coli PNP enzyme activity with substrate MeP-dR; conditions: substrate MeP-dR; percent of wild-type activity
Reply numerically in %, unit not repeated.

Some solved cases for reference:
# molecule, unitsSymbol, Percent of Control Activity, MeP-dR
data = [
    ("M181L (protein, UniProt P0ABP8 2-239, looked up, variant M181L) Purine nucleoside …: ATPHINAEMGDFADVVLMPGDPLRAKYIAETFLEDAREVNNVRGMLGFTGTYKGRKISVMGHGMGIPSCSIYTKELITDFGVKKIIRVGSCGAVLPHVKLRDVVIGMGACTDSKVNRIRFKDHDFAAIADFDMVRNAVDAAKALGIDARVGNLFSADLFYSPDGEMFDVMEKYGILGVELEAAGIYGVAAEFGAKALTICTVSDHIRTHEQTTAAERQTTFNDMIKIALESVLLGDKE", "%", 0.6),
    ("Wild-type: wild-type E. coli purine nucleoside phosphorylase (PNP) (protein, UniProt P0ABP8 2-239, looked up) Purine nucleoside …: ATPHINAEMGDFADVVLMPGDPLRAKYIAETFLEDAREVNNVRGMLGFTGTYKGRKISVMGHGMGIPSCSIYTKELITDFGVKKIIRVGSCGAVLPHVKLRDVVIGMGACTDSKVNRIRFKDHDFAAIADFDMVRNAVDAAKALGIDARVGNLFSADLFYSPDGEMFDVMEKYGILGVEMEAAGIYGVAAEFGAKALTICTVSDHIRTHEQTTAAERQTTFNDMIKIALESVLLGDKE", "%", 100),
]

Exam item: Please look up its Percent of Control Activity, MeP-dR: A157L (protein, UniProt P0ABP8 2-239, looked up, variant A157L) Purine nucleoside …: ATPHINAEMGDFADVVLMPGDPLRAKYIAETFLEDAREVNNVRGMLGFTGTYKGRKISVMGHGMGIPSCSIYTKELITDFGVKKIIRVGSCGAVLPHVKLRDVVIGMGACTDSKVNRIRFKDHDFAAIADFDMVRNAVDAAKALGIDARVGNLFSLDLFYSPDGEMFDVMEKYGILGVEMEAAGIYGVAAEFGAKALTICTVSDHIRTHEQTTAAERQTTFNDMIKIALESVLLGDKE
Marked response: 12
